Source listed as patent US6342508B1.

Where a name gives a salt, the structure may show the parent alone.
Outcome Measure: melting point (°C)

compound="COc1ccc(SC(C)(CC=C(C)C)C(=O)NO)cc1 (stereo not drawn)" units_label=°C val=89
compound="COc1ccc(S(=O)(=O)C(C)(Cc2ccc(OCCN3CCOCC3)cc2)C(=O)NO)cc1 (stereo not drawn) (as salt: hydrochloride)" units_label=°C val=98

(A) COc1ccc(S(=O)(=O)C2(C(=O)NO)CCN(CCCOc3ccccc3)CC2)cc1
(B) CCC(Cc1ccc(OCCN2CCOCC2)cc1)(C(=O)NO)S(=O)(=O)c1ccc(OC)cc1 (stereo not drawn)
### Prompt Sorting ascending by melting point, which comes first: A or B ? Write down the label of the entry you select.
### Response B
(B: 51 °C, A: 101 °C)

----------
Where a name gives a salt, the structure may show the parent alone.
Outcome Measure: melting point (°C)

compound="CCCCOc1ccc(S(=O)(=O)C2(C(=O)NO)CCN(Cc3ccccc3)CC2)cc1 [Example 98]" units_label=°C val=144
compound="CCCC(Cc1ccc(OCCN2CCCCCC2)cc1)(C(=O)NO)S(=O)(=O)c1ccc(OC)cc1 (centres unmarked) [Example 19]" units_label=°C val=85

(A) COc1ccc([S+]([O-])C(C(=O)NO)C(C)C)cc1 (centres unmarked) [Example 7]
(B) Cn1ccnc1S(=O)(=O)C(C)(Cc1ccc(-c2ccccc2)cc1)C(=O)NO (centres unmarked) [Example 47]
(C) CCCCN1CCC(C(=O)NO)(S(=O)(=O)c2ccc(OC)cc2)CC1 [Example 93]
### Prompt Order by melting point, ascending. Please list each label once, in the requested order.
### Response C, B, A
(C: 75 °C, B: 112 °C, A: 163 °C)

(I) CCCCOc1ccc(S(=O)(=O)C2(C(=O)NO)CCN(CCOc3ccccc3)CC2)cc1 (as salt: HCl) [Example 108]
(II) COc1ccc(S(=O)(=O)C(C)(Cc2ccc(-c3ccccc3)cc2)C(=O)NO)cc1 (centres unmarked) [Example 14]
### Prompt Smaller melting point value, I vs II ? # answer = label of selected item
### Response I

----------
Structures can show the parent of a compound that is named as a salt.
Outcome Measure: melting point

compound="CCCCCC#CCC(Cc1cccnc1)(C(=O)NO)S(=O)(=O)c1ccc(F)cc1 (stereo not drawn) (as salt: salt)" val="180 to 182 °C"
compound=COc1ccc(S(=O)(=O)C2(C(=O)NO)CCN(Cc3ccc(C)cc3)CC2)cc1 val="176 to 177 °C"

// below: melting point requested for another compound
### Prompt Provide only the value of recorded melting point for "COc1ccc(S(=O)(=O)C2(C(=O)NO)CCN(C3CCCCCCC3)CC2)cc1"
### Response > 200 °C

----------
Molecular target: MMP 13 (Homo sapiens)
Assay: MMP 13 inhibition (standard/manual test)
Assay type: biochemical
Settings: 1 micromolar
Outcome Measure: MMP 13 % inhibition at 1 micromolar (%)

Example entries begin here.
compound="Cc1occc1S(=O)(=O)C(C)(Cc1ccccc1)C(=O)NO (stereo not shown)" measurement_target="MMP 13 (Homo sapiens)" outcome_measure="MMP 13 % inhibition at 1 micromolar" val=55.5
compound="CC(C(=O)O)S(=O)(=O)CCCCCCCCS(=O)(=O)C(C)C(=O)NO (stereo not shown)" measurement_target="MMP 13 (Homo sapiens)" outcome_measure="MMP 13 % inhibition at 1 micromolar" val=54.6

(A) Cc1occc1S(=O)(=O)C(C)(Cc1ccc(OCCN2CCCCC2)cc1)C(=O)NO (stereo not shown)
(B) CCCCCCC(Sc1ccc(OC)cc1)C(=O)NO (stereo not shown)
### Prompt Between these two entries, A and B , state which has the higher MMP 13 % inhibition at 1 micromolar. To answer, give the label that identifies your chosen option.
### Response A
